In this section we review reported EC50 values for a set of molecules.
- Assay System: a4b7 integrin interaction with MadCAM-1 (Homo sapiens, UniProt P13612+P26010)
- Construct: capture of a4b7 integrin expressing cells, RPMI8866; endogenous in cells
- Experiment Notes: a4b7 Cell Capture Assay (RPMI8866 cells on MAdCAM-1 Fc coated plates)
- Condition Parameters: 50% human serum, 1 mM MgCl2, 1 hour incubation, CellTiter-Glo luminescence, read-out: a4B7 cell capture assay RMPI8866-MadCAM EC50
Just the number please, in nM, no unit attached.

Query: Form field: reported EC50 of Cc1cc2cc(c1F)[C@H](CC(=O)O)NC(=O)[C@@H](n1cc(CCN(C)C)c(C(F)(F)F)cc1=O)c1cccc(c1)Oc1cccc(C)c1-2 (relative stereo)
Response: 2.3

Query: What do you have for Cc1cccc2c1-c1cc(C3CC3)c(F)c(c1)[C@H](CC(=O)O)NC(=O)[C@@H](n1cc(CCN3CC(F)C3)c(C(F)(F)F)cc1=O)c1cccc(c1)O2 (relative stereo) ?
Response: 72

Further cases:
Query: Form field: reported EC50 of Cc1cccc2c1-c1cc(c(F)c(C(F)(F)F)c1)[C@H](CC(=O)O)NC(=O)[C@@H](n1cc(CCN3CC(F)C3)c(C(F)(F)F)cc1=O)c1cc(Cl)cc(c1)O2 (relative stereo)
Response: 28

Query: What do you have for Cc1cc2cc(c1F)[C@H](CC(=O)O)NC(=O)[C@@H](n1cc(CCN3CC(F)C3)c(C(F)(F)F)cc1=O)c1cc(ccc1F)COc1ccc(F)c(C)c1-2 (single isomer, unassigned) ?
Response: 42

====

- Assay System: a4b7 integrin interaction with MadCAM-1 (Homo sapiens, UniProt P13612+P26010)
- Construct: capture of a4b7 integrin expressing cells, RPMI8866; endogenous in cells
- Sequence (P13612 34-1032): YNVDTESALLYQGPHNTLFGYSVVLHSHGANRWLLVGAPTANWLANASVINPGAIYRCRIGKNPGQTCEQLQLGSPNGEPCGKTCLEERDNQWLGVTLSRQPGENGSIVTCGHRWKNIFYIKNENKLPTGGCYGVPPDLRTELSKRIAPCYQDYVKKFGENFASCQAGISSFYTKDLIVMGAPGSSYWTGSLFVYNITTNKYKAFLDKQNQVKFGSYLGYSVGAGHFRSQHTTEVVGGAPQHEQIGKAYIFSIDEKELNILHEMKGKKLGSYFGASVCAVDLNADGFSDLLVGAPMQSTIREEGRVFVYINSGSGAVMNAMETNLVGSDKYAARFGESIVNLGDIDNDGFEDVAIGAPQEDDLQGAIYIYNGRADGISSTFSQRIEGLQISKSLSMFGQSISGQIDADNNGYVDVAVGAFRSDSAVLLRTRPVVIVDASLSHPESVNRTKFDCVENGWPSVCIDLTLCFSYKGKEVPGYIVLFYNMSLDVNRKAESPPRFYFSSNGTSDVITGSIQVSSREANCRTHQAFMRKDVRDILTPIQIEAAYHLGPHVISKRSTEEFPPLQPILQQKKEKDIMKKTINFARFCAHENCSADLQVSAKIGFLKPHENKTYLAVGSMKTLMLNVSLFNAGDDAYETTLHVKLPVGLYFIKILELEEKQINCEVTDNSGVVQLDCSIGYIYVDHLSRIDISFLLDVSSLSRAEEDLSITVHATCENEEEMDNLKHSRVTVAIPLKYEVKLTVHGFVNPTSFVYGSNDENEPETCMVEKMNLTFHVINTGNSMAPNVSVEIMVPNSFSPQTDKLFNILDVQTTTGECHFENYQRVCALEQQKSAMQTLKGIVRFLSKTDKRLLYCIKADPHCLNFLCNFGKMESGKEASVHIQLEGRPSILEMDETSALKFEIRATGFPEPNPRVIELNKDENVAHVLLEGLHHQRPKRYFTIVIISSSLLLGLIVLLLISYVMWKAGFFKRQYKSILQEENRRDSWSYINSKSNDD
- Sequence (P26010 20-798): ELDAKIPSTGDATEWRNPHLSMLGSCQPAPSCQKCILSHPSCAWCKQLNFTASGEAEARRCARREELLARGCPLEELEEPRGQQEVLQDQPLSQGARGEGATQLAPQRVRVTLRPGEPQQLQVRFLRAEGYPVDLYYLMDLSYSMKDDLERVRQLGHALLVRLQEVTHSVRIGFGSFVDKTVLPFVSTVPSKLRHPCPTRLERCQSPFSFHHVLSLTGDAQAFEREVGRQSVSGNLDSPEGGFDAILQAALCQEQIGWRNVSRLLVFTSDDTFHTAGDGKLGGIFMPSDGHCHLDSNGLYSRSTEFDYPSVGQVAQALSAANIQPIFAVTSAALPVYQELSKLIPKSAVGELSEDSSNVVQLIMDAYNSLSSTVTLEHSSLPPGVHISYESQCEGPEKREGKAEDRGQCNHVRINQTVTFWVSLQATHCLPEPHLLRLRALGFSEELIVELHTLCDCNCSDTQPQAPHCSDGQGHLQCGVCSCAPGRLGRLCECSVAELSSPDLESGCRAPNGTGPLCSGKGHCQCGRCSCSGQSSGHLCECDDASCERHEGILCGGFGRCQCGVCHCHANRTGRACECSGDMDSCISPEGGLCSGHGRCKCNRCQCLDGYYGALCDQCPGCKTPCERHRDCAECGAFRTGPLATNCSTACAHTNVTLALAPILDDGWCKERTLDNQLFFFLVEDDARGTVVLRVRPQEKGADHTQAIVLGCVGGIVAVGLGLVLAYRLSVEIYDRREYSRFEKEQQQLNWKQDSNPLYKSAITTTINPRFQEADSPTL
- Experiment Notes: a4b7 Cell Capture Assay (RPMI8866 cells on MAdCAM-1 Fc coated plates)
- Condition Parameters: 50% human serum, 1 mM MgCl2, 1 hour incubation, CellTiter-Glo luminescence, read-out: a4B7 cell capture assay RMPI8866-MadCAM EC50
In this section we review reported pEC50 values for a set of compounds.
Just so you know, pEC50 here is -log10 of the concentration in molar units; reply with that number alone.

Example entries and their recorded answers appear below.
Query: Form field: reported pEC50 of Cc1cc2cc(c1F)[C@H](CC(=O)O)NC(=O)[C@@H](n1cc(CCN3CC(F)C3)c(C(F)(F)F)cc1=O)c1cc(cc(Cl)c1F)COc1cccc(C)c1-2 (single isomer, unassigned) [Example 49]
Response: 8.31

Query: What do you have for O=C(O)C[C@@H]1NC(=O)[C@@H](n2cc(CCN3CC(F)C3)c(C(F)(F)F)cc2=O)c2cccc(c2)Oc2cccc(Cl)c2-c2cc1c(F)c(C(F)(F)F)c2 (relative stereo) [Example 17] ?
Response: 6.85

Query: What do you have for Cc1cc2cc(c1F)[C@H](CC(=O)O)NC(=O)[C@@H](n1cc(CCCN3CCC3)c(C(F)(F)F)cc1=O)c1cc(ccc1F)Oc1cccc(C)c1-2 (single isomer, unassigned) [Example 21] ?
Response: 10.10

Query: What do you have for Cc1cc2cc(c1F)[C@H](CC(=O)O)NC(=O)[C@@H](n1cc(CCCN(C)C)c(C(F)(F)F)cc1=O)c1cc(ccc1F)Oc1cccc(C)c1-2 (relative stereo) [Example 20] ?
Response: 10.10

Further cases:
Query: Form field: reported pEC50 of Cc1cc2cc(c1F)[C@H](CC(=O)O)NC(=O)[C@H](n1cc(CCN3CC(F)C3)c(C(F)(F)F)cc1=O)c1cccc(c1)Cc1cccc(C)c1-2 (relative stereo) [Example 2]
Response: 7.12

Query: What do you have for Cc1cc2cc(c1F)[C@H](CC(=O)O)NC(=O)[C@@H](n1cc(CCN3CC(F)C3)c(C(F)(F)F)cc1=O)c1cc(ccc1F)COc1cc(C#N)cc(C)c1-2 (single isomer, unassigned) [Example 54] ?
Response: 7.57

Query: What do you have for COC1CN(c2cc(C)c3c(c2)Oc2ccc(F)c(c2)[C@H](n2cc(CCN4CC(F)C4)c(C(F)(F)F)cc2=O)C(=O)N[C@@H](CC(=O)O)c2cc-3cc(C)c2F)C1 (single isomer, unassigned) [Example 41] ?
Response: 7.68

Query: What do you have for Cc1cc2cc(c1F)[C@H](CC(=O)O)NC(=O)[C@@H](n1cc(CCN3CC(F)C3)c(C(F)(F)F)cc1=O)c1cc(ccc1F)Oc1cccc(Cl)c1-2 (relative stereo) [Example 19] ?
Response: 9.08
